Target: E. coli apo-SdhA (Escherichia coli)
Construct: His6 (N); made in house; host or cells: E. coli RP437 ΔsdhE (RP-E), plasmid pCA24N-SdhA
Sequence (P0AC41 whole entry): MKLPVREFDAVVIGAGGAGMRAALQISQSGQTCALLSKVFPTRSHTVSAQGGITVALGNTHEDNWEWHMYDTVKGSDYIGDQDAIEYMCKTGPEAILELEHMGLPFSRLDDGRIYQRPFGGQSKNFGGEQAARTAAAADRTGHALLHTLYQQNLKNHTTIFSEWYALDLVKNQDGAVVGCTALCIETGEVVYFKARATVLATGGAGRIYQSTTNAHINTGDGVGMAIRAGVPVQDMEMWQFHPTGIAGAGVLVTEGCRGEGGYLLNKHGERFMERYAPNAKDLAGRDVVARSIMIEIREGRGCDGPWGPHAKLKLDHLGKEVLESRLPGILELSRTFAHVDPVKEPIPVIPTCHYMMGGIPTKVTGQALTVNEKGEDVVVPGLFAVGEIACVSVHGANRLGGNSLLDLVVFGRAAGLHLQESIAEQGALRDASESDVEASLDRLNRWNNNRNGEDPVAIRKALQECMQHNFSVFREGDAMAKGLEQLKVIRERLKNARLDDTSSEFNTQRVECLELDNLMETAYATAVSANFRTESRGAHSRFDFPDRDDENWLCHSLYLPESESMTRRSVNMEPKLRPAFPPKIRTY
Assay: biochemical
Assay type: biochemical
Conditions: read-out: k, ligand concentration for half-maximal flavinylation after 1 h incubation, +SdhE; 50 mM potassium phosphate pH 7.0, 0.1 mM FAD, 30 °C, 1 h
ASSAY METRIC: EC50 (µM)
# number only, unit µM dropped from output

Query: EC50; subject: O=C(O)CCC(=O)O [Succinate, succinate]
1

* * *

Biological target: E. coli apo-FrdA (Escherichia coli, UniProt P00363)
Construct: His6 (N); made in house; host or cells: E. coli RP437 ΔsdhE (RP-E), plasmid pCA24N-FrdA
Sequence (P00363 whole entry): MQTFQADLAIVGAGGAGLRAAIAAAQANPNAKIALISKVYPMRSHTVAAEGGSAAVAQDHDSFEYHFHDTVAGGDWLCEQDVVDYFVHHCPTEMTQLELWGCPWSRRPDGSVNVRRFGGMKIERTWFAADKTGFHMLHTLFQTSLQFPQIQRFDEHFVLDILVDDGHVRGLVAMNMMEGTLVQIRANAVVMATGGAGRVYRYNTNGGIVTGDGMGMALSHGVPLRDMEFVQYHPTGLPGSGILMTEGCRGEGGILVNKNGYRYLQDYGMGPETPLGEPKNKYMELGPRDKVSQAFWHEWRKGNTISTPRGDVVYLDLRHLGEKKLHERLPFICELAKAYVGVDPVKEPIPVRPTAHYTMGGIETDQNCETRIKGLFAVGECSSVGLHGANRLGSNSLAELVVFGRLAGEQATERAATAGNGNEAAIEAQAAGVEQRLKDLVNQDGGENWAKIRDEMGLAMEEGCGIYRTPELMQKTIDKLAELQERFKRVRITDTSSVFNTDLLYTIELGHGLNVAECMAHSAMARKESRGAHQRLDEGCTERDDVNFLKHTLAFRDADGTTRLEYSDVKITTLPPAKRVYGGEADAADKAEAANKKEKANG
Type: biochemical
Details: +SdhE 10.4 μM; ligand 20 mM, FAD 100 μM, 1 h, 30 °C
Method: Unless specified, the reaction was performed in 50 mM potassium phosphate (pH 7.0) at 30 °C for 1 h. […] The reaction was started after addition of the appropriate flavinylation-promoting ligand at the as-indicated concentration. […] Upon illumination with UV light, complex II flavinylated flavoprotein is visible because of the fluorescence of the covalently bound flavin. […]
ASSAY METRIC: Covalent FAD attachment to apo-FrdA, SdhE-dependent

{"columns": ["MOLECULE", "OBSERVED VALUE"],
 "data": [
  ["N[C@@H](CC(=O)O)C(=O)O [Aspartate, L-aspartate]", "high levels"],
  ["CC(=O)O [acetate]", "~30%"],
  ["CC(=O)C(=O)O [Pyruvate]", "able to induce"],
  ["O=C(O)CC(O)(CC(=O)O)C(=O)O [citrate]", "able to induce"],
  ["O=C(O)CC(=O)C(=O)O [oxaloacetate]", "high levels"],
  ["O=C(O)/C=C/C(=O)O [Fumarate]", "high levels"]
]}

Quick check: Covalent FAD attachment to apo-FrdA, SdhE-dependent of O=C(O)CC(O)C(=O)O (stereo not drawn) [Malate, malate] ?
high levels

Find the recorded Covalent FAD attachment to apo-FrdA, SdhE-dependent belonging to O=C(O)CCC(=O)O [Succinate, succinate] and report it.
high levels

Could you tell me which Covalent FAD attachment to apo-FrdA, SdhE-dependent is on file for O=C(O)CC(=O)O [malonate] ?
~30%
